# ASSAY NOTES: MTT cell viability assay, CTX TNA2 cell
# Assay type: cell-based
# PROTOCOL CONDITIONS: rat, CTX TNA2 cells, hydrogel up to 500 μM
# Method: The bio-compatibility of the hydrogels prepared from the different peptide materials was measured by MTT cell viability assay. MTT cell viability assay was performed by Sunrise absorbance microplate reader (DV990/BV4 GDV Programmable MPT reader). […] The optical densities of such obtained solutions were measured at 595 nm by Sunrise absorbance microplate reader (DV990/BV4 GDV Programmable MPT reader). […]
EXPERIMENTAL ENDPOINT: viability

COMPOUND | RESULT
O=C(Cc1c(F)c(F)c(F)c(F)c1F)N[C@@H](Cc1ccc(O)cc1)C(=O)N[C@@H](Cc1ccccc1)C(=O)O [hydrogel (C), PFB-Tyr-Phe] | ~100%

Values were extracted from patent US20160009763A1.
